Recorded values, source patent US8729082B2.

Biological target: human kinase Mps-1 (Homo sapiens, UniProt P33981)
Construct: N-terminally GST-tagged human full length recombinant Mps-1 kinase
Sequence (P33981 whole entry): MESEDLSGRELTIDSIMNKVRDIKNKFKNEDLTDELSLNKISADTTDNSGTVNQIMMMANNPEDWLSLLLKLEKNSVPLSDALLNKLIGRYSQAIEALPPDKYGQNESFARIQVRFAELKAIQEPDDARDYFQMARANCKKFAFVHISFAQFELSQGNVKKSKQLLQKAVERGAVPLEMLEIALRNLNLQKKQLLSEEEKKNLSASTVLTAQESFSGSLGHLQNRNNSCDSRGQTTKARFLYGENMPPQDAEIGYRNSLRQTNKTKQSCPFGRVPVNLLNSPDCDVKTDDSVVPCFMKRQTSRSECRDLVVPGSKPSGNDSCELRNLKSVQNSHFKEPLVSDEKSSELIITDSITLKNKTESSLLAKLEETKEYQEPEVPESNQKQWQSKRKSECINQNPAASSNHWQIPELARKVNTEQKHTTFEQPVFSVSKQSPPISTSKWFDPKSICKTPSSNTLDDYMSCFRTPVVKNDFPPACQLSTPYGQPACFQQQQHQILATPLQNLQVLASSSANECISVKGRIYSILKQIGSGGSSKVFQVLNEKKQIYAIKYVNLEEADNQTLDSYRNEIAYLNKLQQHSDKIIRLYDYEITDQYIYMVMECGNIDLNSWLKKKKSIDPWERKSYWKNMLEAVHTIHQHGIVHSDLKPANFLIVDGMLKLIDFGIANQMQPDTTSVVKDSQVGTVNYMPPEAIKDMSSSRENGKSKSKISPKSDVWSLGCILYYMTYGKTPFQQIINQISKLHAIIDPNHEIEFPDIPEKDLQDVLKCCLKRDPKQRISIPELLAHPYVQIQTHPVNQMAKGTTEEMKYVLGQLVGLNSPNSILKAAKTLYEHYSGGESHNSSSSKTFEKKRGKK
Assay: Mps-1 kinase assay (HTRF)
Conditions: lowATP; mean; read-out: Mps1 lowATP mean IC50
pIC50: −log10 of the molar value.
Rule: pIC50 under 7 gives Condition not met, otherwise Condition met.

Use these answered entries as a reference point.
Cc1cc2nc(NCCCCO)c3ncc(-c4ccc(C(=O)NC5CC5)c(Cl)c4)n3c2cc1C :: Condition met
COc1cccc(-c2cnc3c(NCC(C)C)nc4ccccc4n23)c1F :: Condition not met
CC(C)CNc1nc2ccccc2n2c(-c3ccc(C(=O)NC4CC4F)cc3)cnc12 (centres unmarked) :: Condition met
CNC(=O)Nc1ccc(-c2cnc3c(NCCCn4ccnc4)nc4ccc(F)cc4n23)cc1 :: Condition not met
CC(C)CNc1nc2ccccc2n2c(-c3cc(F)ccc3F)cnc12 :: Condition not met

Could you please find out whether `O=C(NC1CC1)c1ccc(-c2cnc3c(NCCCc4ccccc4)nc4ccccc4n23)cc1` has pIC50 that meets 7 or exceeds it?
Condition not met

Threshold query (pIC50 >= 7) on `Cc1cc2nc(NCc3ccn(C)n3)c3ncc(-c4ccc(C(=O)NC5CC5)cc4)n3c2cc1C`
Condition met

Hi team, for `N#Cc1ccc2c(c1)nc(NCc1ccccc1F)c1ncc(-c3ccc(C(=O)NC4CC4)c(Cl)c3)n12` , is the recorded pIC50 at or above 7?
Condition not met

====

Target: human kinase Mps-1 (Homo sapiens, UniProt P33981)
Construct: N-terminally GST-tagged human full length recombinant Mps-1 kinase
Test: Mps-1 kinase assay (HTRF)
Conditions: lowATP; mean; read-out: Mps1 lowATP mean IC50
pIC50: −log10 of the molar value.
Label 0 if pIC50 falls below 6; label 1 in every other case.

Before answering, review these 3 worked examples.
O=C(NC1CC1)c1ccc(-c2cnc3c(NCCCO)nc4ccc(F)cc4n23)cc1Cl :: 0
CC(=O)NCCNc1nc2cc(C)c(C)cc2n2c(-c3ccc(C(=O)NC4CC4)c(Cl)c3)cnc12 :: 1
O=C(NC1CC1)c1ccc(-c2cnc3c(NCc4cccs4)nc4ccccc4n23)cc1 :: 1

Could you verify whether the entry `CC(C)CNc1nc2ccccc2n2c(-c3ccc(C(=O)N(C)C)cc3)cnc12` shows pIC50 of no less than 6?
0

Is reported pIC50 greater than or equal to 6 here: `CCNc1nc2cc(C)c(C)cc2n2c(-c3ccc(C(=O)NC4CC4)cc3)cnc12`
1

Hi, just wondering whether `CNC(=O)Nc1ccc(-c2cnc3c(NCCCN4CCCC4=O)nc4ccc(F)cc4n23)cc1` shows pIC50 of 6 or higher.
0

Quick check, pIC50 >= 6? `C#CCNC(=O)c1ccc(-c2cnc3c(NCC(C)C)nc4ccccc4n23)cc1`
1

Hi team, for `Cc1cc2nc(NCc3ccco3)c3ncc(-c4ccc(C(=O)NC5CC5)cc4)n3c2cc1C` , is the recorded pIC50 at or above 6?
1

Hello, I need to know if `CC(C)CNc1nc2cc(C#N)ccc2n2c(-c3ccc(C(=O)NC4CC4)cc3)cnc12` has measured pIC50 not below 6. Thanks!
1

Can `CC(C)CNc1nc2ccccc2n2c(-c3ccc(NC(=O)Nc4ccc(CN5CCN(C)CC5)c(C(F)(F)F)c4)cc3)cnc12` be said to have pIC50 at or above 6?
1

Check the entry `CC(C)CCNc1nc2ccc(F)cc2n2c(-c3ccc(C(=O)NC4CC4)cc3)cnc12` : does pIC50 equal or exceed 6?
1

Hi, just wondering whether N#Cc1ccc2c(c1)nc(NCC(O)CO)c1ncc(-c3ccc(C(=O)NC4CC4)c(Cl)c3)n12 (stereo not shown) shows pIC50 of 6 or higher.
0
